- measurement_target: PaMTADA (Pseudomonas aeruginosa, UniProt Q9HZ64)
- Sequence (Q9HZ64 1-444): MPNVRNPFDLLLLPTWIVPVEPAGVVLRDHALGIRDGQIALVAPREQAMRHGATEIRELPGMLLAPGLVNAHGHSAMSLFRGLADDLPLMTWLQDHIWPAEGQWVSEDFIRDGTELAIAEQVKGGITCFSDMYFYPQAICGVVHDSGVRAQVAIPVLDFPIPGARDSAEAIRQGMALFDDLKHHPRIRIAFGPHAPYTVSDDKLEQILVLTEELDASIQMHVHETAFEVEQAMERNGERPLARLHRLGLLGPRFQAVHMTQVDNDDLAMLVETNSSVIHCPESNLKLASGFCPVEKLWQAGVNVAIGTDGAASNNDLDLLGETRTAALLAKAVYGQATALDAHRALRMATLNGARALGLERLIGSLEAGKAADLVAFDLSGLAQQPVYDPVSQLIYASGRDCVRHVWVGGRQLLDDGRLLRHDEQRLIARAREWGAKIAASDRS
- assay_procedure: Inhibition assays for PaMTADA
- Type: biochemical
- conditions_used: equilibrium dissociation constant (Ki or Ki*); 25° C., pH 7.4, 100 μM MTA; read-out: PaMTADA Ki
reported_metric: Ki
Value and unit, in that order.

Please fill in: Ki reported for OC[C@H]1O[C@@H](n2cnc3c2N=CNC[C@H]3O)[C@H](O)[C@@H]1O [Coformycin (CF), Coformycin] = 90 nM

====

- measurement_target: PaMTADA (Pseudomonas aeruginosa, UniProt Q9HZ64)
- Sequence (Q9HZ64 1-444): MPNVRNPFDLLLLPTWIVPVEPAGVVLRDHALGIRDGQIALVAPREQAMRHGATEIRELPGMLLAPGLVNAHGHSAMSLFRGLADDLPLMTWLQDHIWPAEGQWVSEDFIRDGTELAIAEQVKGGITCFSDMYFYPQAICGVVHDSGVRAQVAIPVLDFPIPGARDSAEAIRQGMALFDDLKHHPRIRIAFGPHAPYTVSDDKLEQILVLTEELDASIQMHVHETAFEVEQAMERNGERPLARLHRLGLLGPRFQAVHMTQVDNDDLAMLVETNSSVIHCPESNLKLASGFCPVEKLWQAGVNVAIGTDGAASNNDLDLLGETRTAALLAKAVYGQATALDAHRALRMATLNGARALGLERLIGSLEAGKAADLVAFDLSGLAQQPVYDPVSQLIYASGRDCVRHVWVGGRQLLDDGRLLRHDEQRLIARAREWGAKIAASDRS
- assay_procedure: Inhibition of PaMTADA activity in P. aeruginosa cell lysates ([8-14C]MTA degradation)
- Type: biochemical, Pseudomonas aeruginosa PAO1
- conditions_used: MTCF added to P. aeruginosa cell lysate, [8-14C]MTA degradation, 20 min
reported_metric: IC50 (nM)
Give just the number in nM; leave the unit off.

Please fill in: IC50 reported for CSC[C@H]1O[C@@H](n2cnc3c2N=CNC[C@H]3O)[C@H](O)[C@@H]1O = 4

Provenance of the data: patent US9522159B2
